Tested on: MCF7
Test: Antiproliferative activity in human MCF7 cells assessed as cell viability after 48 hrs by alamarBlue assay
Format: functional, cell-based
Settings: MCF7, 48 h
Reported IC50 is given for each of the following compounds.
Write down the numeric answer in µM and omit the unit.

Completed entries (count: 2):
COc1cc(OC)c(OC)cc1/C=C/C(=O)N1CCC=CC1=O    3.4
COc1cccc(/C=C/C(=O)N2CCC=CC2=O)c1    7.5

Q: Please list IC50 recorded for the compound COc1cc(/C=C/C(=O)N2CCC=CC2=O)cc(OC)c1OC [PIPLARTINE]
A: 1.2

###

System: Jurkat
Assay: Cytotoxicity against human Jurkat cells after 24 hrs by MTT assay
Format: functional, cell-based
endpoint: pIC50
Answer as the number alone; pIC50 is minus log10 of concentration in mol/L.

Q: Fill in reported pIC50 for this entry: COc1cc(/C=C/C(=O)N2CCC=CC2=O)cc(OC)c1OC [PIPLARTINE]
A: 5.30
